Item-by-item account of IC50
target: Type-2 angiotensin II receptor/Low affinity immunoglobulin epsilon Fc receptor (Homo sapiens, UniProt P06734+P50052); assay: Radioligand Assay
Sequence (P50052 whole entry): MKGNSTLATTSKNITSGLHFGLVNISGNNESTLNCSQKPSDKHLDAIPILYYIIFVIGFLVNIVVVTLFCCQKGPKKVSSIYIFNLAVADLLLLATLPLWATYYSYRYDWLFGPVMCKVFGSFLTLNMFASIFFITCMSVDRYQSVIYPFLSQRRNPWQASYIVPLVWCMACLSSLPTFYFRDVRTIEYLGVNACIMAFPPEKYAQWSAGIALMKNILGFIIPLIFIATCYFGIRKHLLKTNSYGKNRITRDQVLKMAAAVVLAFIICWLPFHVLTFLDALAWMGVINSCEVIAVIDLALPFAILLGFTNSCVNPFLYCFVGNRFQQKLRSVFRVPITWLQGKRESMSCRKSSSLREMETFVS
Sequence (P06734 whole entry): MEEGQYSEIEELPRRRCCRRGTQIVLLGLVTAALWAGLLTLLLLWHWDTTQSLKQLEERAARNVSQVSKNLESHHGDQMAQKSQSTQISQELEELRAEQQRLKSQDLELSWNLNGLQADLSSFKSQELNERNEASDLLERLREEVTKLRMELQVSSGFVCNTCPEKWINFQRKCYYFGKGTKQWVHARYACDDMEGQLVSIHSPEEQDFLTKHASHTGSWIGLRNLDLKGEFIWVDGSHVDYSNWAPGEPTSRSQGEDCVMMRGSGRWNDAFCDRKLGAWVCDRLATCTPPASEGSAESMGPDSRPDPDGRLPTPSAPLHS
Quick note: give the figure in µM, leave out the unit.

Use the examples below as a reference point.
smiles_data=CC(C)Cc1ccc(-c2nn[nH]n2)c(N2CCN(Cc3nc4ncccc4o3)CC2)c1 assay_result=18.5
smiles_data=c1ccc2sc(CN3CCN(c4cc(NCC5CC5)ccc4-c4nn[nH]n4)CC3)nc2c1 assay_result=1.68
smiles_data=CCCCNC(=O)NS(=O)(=O)c1ccc(C(F)(F)F)cc1N1CCN(Cc2nc3ccccc3n2C)CC1 assay_result=3.36

// below: IC50 requested for another compound
In: Given the compound "CCc1nc2ccc(NC(=O)c3ccccc3)cc2c(=O)n1CC1CCN(c2ccccc2-c2nn[nH]n2)CC1" , what is its reported IC50?
Out: 9.97
